Test system: Hs578T multi-cell spheroids, viability
TEST_METHOD_NOTES: Anticancer human tumor Hs578T cell line growth inhibition [IpAb];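 further: drug exposure lasted 7 days before readout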
MEASUREMENT_CONTEXT: second compound 0.01 µM; first compound 0.1 µM; hits give low values

COMPOUND: COc1c(OCCCN2CCOCC2)ccc2c3n(c(=NC(=O)c4cnc(N)nc4)nc12)CCN3 + CCN1CCN(Cc2ccc(Nc3ncc(F)c(-c4cc(F)c5nc(C)n(C(C)C)c5c4)n3)nc2)CC1
viability, T/C: 26.9%

COMPOUND: Cn1nccc1Nc1nccc(-c2ccn(C(CO)c3ccc(Cl)c(F)c3)c(=O)c2)n1 (stereo not given) + CCN1CCN(Cc2ccc(Nc3ncc(F)c(-c4cc(F)c5nc(C)n(C(C)C)c5c4)n3)nc2)CC1
viability, T/C: 109%

COMPOUND: CC(C)n1nc(-c2ccc3oc(N)nc3c2)c2c(N)ncnc21 + CCN1CCN(Cc2ccc(Nc3ncc(F)c(-c4cc(F)c5nc(C)n(C(C)C)c5c4)n3)nc2)CC1
viability, T/C: 13.2%

COMPOUND: CC1(C)CCC(CN2CCN(c3ccc(C(=O)NS(=O)(=O)c4ccc(NCC5CCOCC5)c([N+](=O)[O-])c4)c(Oc4cnc5[nH]ccc5c4)c3)CC2)=C(c2ccc(Cl)cc2)C1 + CCN1CCN(Cc2ccc(Nc3ncc(F)c(-c4cc(F)c5nc(C)n(C(C)C)c5c4)n3)nc2)CC1
viability, T/C: 107%

COMPOUND: C=CC(=O)N1CCN(c2nc(=O)n(-c3c(C)ccnc3C(C)C)c3nc(-c4c(O)cccc4F)c(F)cc23)C(C)C1 (stereo not given) + CCN1CCN(Cc2ccc(Nc3ncc(F)c(-c4cc(F)c5nc(C)n(C(C)C)c5c4)n3)nc2)CC1
viability, T/C: 103%

* * *

Test system: Hs578T multi-cell spheroids, viability
TEST_METHOD_NOTES: Anticancer human tumor Hs578T cell line growth inhibition [IpAb];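 further: drug exposure lasted 7 days before readout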
MEASUREMENT_CONTEXT: second compound 0.316 µM; first compound 0.00949 µM; hits give low values
Procedure: Combinatorial screen of targeted agents with ipatasertib and abemaciclib in multi-cell type tumor spheroids […] Compounds. […] If the clinical Cmax for an agent had not been determined, the highest concentration tested was 10 microM. NCI60 Cell Culture. […] The optimal seeding densities for each of the cell lines at each time point assessed were determined prior to performing the concentration response studies. […]
This section presents molecules with their documented viability, T/C values.

MOLECULE: CC(=O)c1c(C)c2cnc(Nc3ccc(N4CCNCC4)cn3)nc2n(C2CCCC2)c1=O + CCN1CCN(Cc2ccc(Nc3ncc(F)c(-c4cc(F)c5nc(C)n(C(C)C)c5c4)n3)nc2)CC1
viability, T/C: 82.2%
--
MOLECULE: Cn1cnc2c(F)c(Nc3ccc(Br)cc3Cl)c(C(=O)NOCCO)cc21 + CCN1CCN(Cc2ccc(Nc3ncc(F)c(-c4cc(F)c5nc(C)n(C(C)C)c5c4)n3)nc2)CC1
viability, T/C: 77.3%
--
MOLECULE: CC(C)(C)c1cnc(CSc2cnc(NC(=O)C3CCNCC3)s2)o1 + CCN1CCN(Cc2ccc(Nc3ncc(F)c(-c4cc(F)c5nc(C)n(C(C)C)c5c4)n3)nc2)CC1
viability, T/C: 104%

* * *

System: Hs578T multi-cell spheroids, viability
TEST_METHOD_NOTES: Anticancer human tumor Hs578T cell line growth inhibition [IpAb];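 further: drug exposure lasted 7 days before readout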
MEASUREMENT_CONTEXT: second compound 0.0316 µM; first compound 0.0316 µM; hits give low values

COMPOUND: Cc1nc(NC(=O)N2CCCC2C(N)=O)sc1-c1ccnc(C(C)(C)C(F)(F)F)c1 (stereo not given) + CCN1CCN(Cc2ccc(Nc3ncc(F)c(-c4cc(F)c5nc(C)n(C(C)C)c5c4)n3)nc2)CC1
UNIT_OF_MEASUREMENT: %
viability, T/C: 88.5
--
COMPOUND: Cn1nccc1Nc1nccc(-c2ccn(C(CO)c3ccc(Cl)c(F)c3)c(=O)c2)n1 (stereo not given) + CCN1CCN(Cc2ccc(Nc3ncc(F)c(-c4cc(F)c5nc(C)n(C(C)C)c5c4)n3)nc2)CC1
UNIT_OF_MEASUREMENT: %
viability, T/C: 92.2
--
COMPOUND: Cn1ncc(Cl)c1-c1cc(C(=O)NC(CN)Cc2cccc(F)c2)sc1Cl (stereo not given) + CCN1CCN(Cc2ccc(Nc3ncc(F)c(-c4cc(F)c5nc(C)n(C(C)C)c5c4)n3)nc2)CC1
UNIT_OF_MEASUREMENT: %
viability, T/C: 86
--
COMPOUND: C=CC(=O)N1CCN(c2nc(=O)n(-c3c(C)ccnc3C(C)C)c3nc(-c4c(O)cccc4F)c(F)cc23)C(C)C1 (stereo not given) + CCN1CCN(Cc2ccc(Nc3ncc(F)c(-c4cc(F)c5nc(C)n(C(C)C)c5c4)n3)nc2)CC1
UNIT_OF_MEASUREMENT: %
viability, T/C: 96
--
COMPOUND: CCCS(=O)(=O)Nc1ccc(F)c(C(=O)c2c[nH]c3ncc(-c4ccc(Cl)cc4)cc23)c1F + CCN1CCN(Cc2ccc(Nc3ncc(F)c(-c4cc(F)c5nc(C)n(C(C)C)c5c4)n3)nc2)CC1
UNIT_OF_MEASUREMENT: %
viability, T/C: 95.3
